# run description: protease stability score; higher = more stable; yeast display proteolysis, trypsin and chymotrypsin
property: protease stability score
# answer = number (no unit)

In [3]: df
Out[3]:
                           monomer_sequence  observed_value
0  DEVDDEVDKMLEFVLDSWETGDEHINRDLMDPNVLVEAENRTLIGREWAEEFLHSIKKRFPNMRVQLHDMRVVGDKVELDTELRYGEYHNRTHIIALKVNGKWLVEKVHFH            1.13
1  GEDEHLAKRLLDLLIELFHTGDWDFISMLADPHVKLNVNGVQYHGRHDVTKLVHDEAEELRVHIQIHKVDWVGDKVHVDTRLVVNIDGQEHRTKTHIDMIVVNGRLNSMRIEIR            1.19
2  DDLEEEAKDAVTKFIHLLLTGDWKEIREMVDPNVRIDVGDKEKHGWEDFIRDALYMHHQVDHIEVRIRHIDIFENRVVTHSVIYIEVNGQDIRLDLTLYIKKINGRWEIRQIEFK            1.82
3  DEEDKHLQEMVEKLVKNWLTGDWDKLRELLDPNTKSNIGEYTSIGWEKDAEAFEKLIHELGIKHMNFLIRRIHVVDGRAHSDVEIELEVDGRNTEVKTHLIVVIINGRVKSITVEYK           0.297
4  SEREKESERLWRLSAEVMETGDESMSLKEFDPHYRVLFDGQDFHGREQWKEFLERFDHEALKRFHEKRDDRQGDKAIHEGDLDLVLNYGDKQLRTRRDVIFYITKVNGKWMIKIVEFV           0.084

Ask | What value of measured protease stability score is listed for DDRERERHRFLRELHESLETGDERELTRMLDPHARWVVGDKQHHGRETLTKFVSEVALRADHFHIEISRVREQGEFIDIDVRVILIIGDKVITIDQRLINLKVDGRWFLHERIVH ?
Reply | 1.05

----------
# run description: protease stability score; higher = more stable; yeast display proteolysis, trypsin and chymotrypsin
Param threshold (1) applies to protease stability score; output Criterion met when value >= threshold, Criterion not met when value < threshold.

Worked set:
>>> print(df.to_string())
                           monomer_sequence                cat
0  SEDEEALKKAIDLLFESLLTGDERELEKLADPNYRMEVNGKEIHGRELFSKTMIDILQRLGIDHIDFRIEHDETQGDKVIIEGKLIFKVGDKHIEIKSRLIVLKVDGQWILRHSRMH      Criterion met
1  DEDDRDMREFWELLFHYLLTGDWESLEKLIDPNARIRVNGKELHGMHYHIRQLTHEVKRFDHIDQRIHHSSVINGKIHLDIHLIINVDGQSFVIHIKMHVDKVDGRWLTRSVHIH      Criterion met
2  TEDLEKVHTFLNLLLHSRLTGDEDSLHRMADPNMRVDQGEYQHHGRELFIEWTKRELEHLRLRHYHLEDIDIYNGVVKVTGKMDVEVNGRRHHVDVTLIVLKINGRWHLKSVHIS      Criterion met
3  DEWLEIAHRFVEELVRSLLTGDEDTLTKLIDPNVRLNINGQEVVGMTEVNRAWHELRIEDEHIRRIDVQGDYVRIHSQRRGEVNGVHTEFEVVIIISKFDGRWVIKSEHVH      Criterion met
4  DEDEEDVDRVSRRWARAMTTGDEDELRELLDPNTRYVQGDKHLHGRTQFERHLREMRFIIHDVRVDNITIIDGRMHIHGHVVGELRTEDHEHHFIFRFHLIVMKINGKWLIKHVDVQ  Criterion not met

Here is another sequence to look at.
Ask | Quick check, protease stability score >= 1? DEEKHEALRLTREFLKLFFTGDWEKLVRLIDPDAKVEIGNFESVGRENIAHLLHLLNEEWRINDMRIHSFTVVNGQVRMDTEINGIYGDKNYETRTEIESVVIDGRLKHFSIRER
Reply | Criterion met

----------
# run description: protease stability score; higher = more stable; yeast display proteolysis, trypsin and chymotrypsin;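 note: relative to predicted unfolded state with 0 unfolded-like and 1 meaning tenfold more protease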
Param threshold (1) applies to protease stability score; output Criterion met when value >= threshold, Criterion not met when value < threshold.

                           monomer_sequence                cat
0  SEKDREMEHFAKILISNLVTGDEEEIFRMADPHYRYQQGDKRIHGREEWRQWLREERERVDHIEFKIHRVEQQGEKIHLDWEIQIEIGNYEIKDKTTIIFIVVDGRLKQIEVRHH  Criterion not met

Ask | Quick check, protease stability score >= 1? DHIEEDIEEAERIMKEVNHTGDWETLERNFDPNVRLDIDGRTFHGMETYTKWFREIRIEDSRVKSIELQGDKIRYDTILHGIINGKRDTVKTHLIAVKVNGRWFIKVYSLH
Reply | Criterion met

Ask | Quick check, protease stability score >= 1? DEDEERSERLLHMVIELLLTGDEEKWNNLLDPHARVEIDGQERHGRHIVTHFLTRFKNVRMHIHDVKVYGEKVDITTEITFNGKHINVHIELVFVNGKMTSVRFEWHRH
Reply | Criterion met

Ask | Quick check, protease stability score >= 1? DEHEEASKLAIELLLTLERTGDEDKLRKLVDPNVRYDINGRELHGWEFMHRMIRHLRTEHVTIERVHVQGDWIHIDRILNVNVNGKEINIRTKINAQKINGVWIEREVEIQ
Reply | Criterion met

Ask | Quick check, protease stability score >= 1? DEMERNEELALKIIEETQRTGDWHMIYEQLDPHVRIIIGDKTLVGREHVEEWLHRIDHLHVDDMKLEHSRPINGRILLDVHMHVHIRYGDKQVKHTTHVHIIMFKFNGRWYLKIVHIH
Reply | Criterion met

Ask | Quick check, protease stability score >= 1? SEDEDIAKEILRLLLEALRTGDWHTVHRLMDPHARVHVNGRDFIGMEEVLRWLEEFLRHMRLRSLTVHDIRIFDGRLHVDSRSDVEIDGRRISIETEVIILKVDGRWHVKSIIFR
Reply | Criterion met

----------
# run description: protease stability score; higher = more stable; yeast display proteolysis, trypsin and chymotrypsin;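 note: relative to predicted unfolded state with 0 unfolded-like and 1 meaning tenfold more protease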
property: protease stability score
# answer = number (no unit)

These solved cases illustrate the format of a correct answer.
>>> df
                           monomer_sequence                  property  observed_value
0  SEDEERARRFFEELIHVLHTGDEDSLIKMADPSVRLDFNGVEAVGREEFERMFKEIWREIRLEDLTSHHIDVFNGRIRIESKSHIEVNGVQITRDELVIVTKINGKWHLHSREVK  protease stability score            1.56
1  SEEEEDAHRNIELLVRYLITGDEETVSRLVDPHVKTDINGQEDHGWQIMSILMEKFKNVTLRLHDIETQGNFAVINMKMRFNGQTFDLHFFARKVNGRWFVEHIKIRQN  protease stability score            1.62

Please examine the following record next.
Ask | What value of measured protease stability score is listed for SEDEKERDMIAELFVRSLVTGDEELIKDLIDPNVKLDIGDKSRHGRENFTRQILHFGVDHVDVTEMHVQGEKVNLRGNWNINGVDLDVINYVTKVNGKWLLTRVEIK ?
Reply | 1.14

----------
# run description: protease stability score; higher = more stable; yeast display proteolysis, trypsin and chymotrypsin;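 note: relative to predicted unfolded state with 0 unfolded-like and 1 meaning tenfold more protease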
property: protease stability score
# answer = number (no unit)

These solved cases illustrate the format of a correct answer.
>>> df
                           monomer_sequence  observed_value
0  DEEDKALEESMRTYHESIHTGDEESFRLLFDPDVRMRINGVDLHGREAMEWMSERIDHLELRRIRFRSIETQGNKIRIDGHEDIEILVDGKRMRVIDRVIIQAVKVNGRWTIKSIKFG            1.15
1  DHRDEVFEELVRLIIHFLETGDWKSLEELADPNVRVTVFYNGRQDNNIGRKQWAEAWERLLHLLGIKHHHMHRYHIQGDKIHIIMNFVVNGQEFTVHIDITVFNGRMKSSRIHVE            1.27

Please examine the following record next.
Ask | What value of measured protease stability score is listed for SDEEEEERRIAHELRHFWETGDEDAFRDMLDPHTRLQIDINGRHFHLHGREHIVRHLSEVWNKFGVKHLKFHDHHVVNGVTHMDGEENIGDKRRRVRIIIIVVNGRVRMVRIQIE ?
Reply | 1.45

----------
# run description: protease stability score; higher = more stable; yeast display proteolysis, trypsin and chymotrypsin;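 note: relative to predicted unfolded state with 0 unfolded-like and 1 meaning tenfold more protease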
Param threshold (1) applies to protease stability score; output Condition met when value >= threshold, Condition not met when value < threshold.

>>> print(df.to_string())
                           monomer_sequence            cat
0  SELKQAIDDLIRRFEHIYHTGNEEIWERLADPNTRIDIDGQEIIGREQATRERREEMKKLGVERVEVELRLRNVEVVGNKLHLDGELILRYGDKTVVIDSKINLQKINGRWVIREEIYH  Condition met
1  SEHDEHLQRNWERFLHHIETGDWRDHEENADPHARVHIGEFDLHGREKFSELFMRLGVKHIEIQRLIVQGDKITADTVVHYGDKRLKTNIFVTKINGRWQLHSIEMR  Condition met
2  SESEDLLETLERVIRRVDETGDERDFHEMLDPDARIIIGDKIHIGREASELWFKRVDHIHHRHIHQIRVIGNKMHIDIEVDGKIGDWRFRTRVELVLVKVNGKWMVHHININ  Condition met
3  DEDQEIAEHVAELILELLLTGDEEKFLTLLDPNVRIIVGDKELHGREDWMRLFRHMRVRHVELRKIEVQGEKVHVDSRLDVEFNGRRRNINANWIVLKVNGRWTIRSVELE  Condition met
4  SEQHKIAQEMAERILELWQTGDEDTFRYLADPHYRLHIIINGKHHDHHGREEWDKWYRELLDRIDHVRLIWRSVETQGDKLRVDGELVLIIDGKRIVEKVHLEFRVIDGVLRHETIKVR  Condition met
5  SEEEEEVVRIWKLLLELEKTGNEENIARLADPHVRTDINGQESHGREHLAKLVRHLFHEIRIKDFKIRRLELQGEKLIVDGELHGNYDGQHEVVDTEIHIYVVNGKLKSITVRHH  Condition met

Ask | Quick check, protease stability score >= 1? SEEEDESEEMARLFVKANITGDEKFLYHMADPHVRIHIHQGNKYIELHGREKLEYWLKEWLEKFKNIRYTINDMKVVGEKVTIESTLQIGDKRIHMQIVIVVINGRIHKFEFHLH
Reply | Condition not met

Ask | Quick check, protease stability score >= 1? DEDTHVMEHALREWSHIFHTGDEDRLLELMDPRTRATVNGVDLHGMEEITRLETEIIRSHGMKFRTFLLEDFKTIDGKIHVHSRLNVDINGKERELRVRIIAKKVNGRWVVTKVEVG
Reply | Condition not met

Ask | Quick check, protease stability score >= 1? DEMDEVMERWAREYISWEKTGDEEKAKKYVDPNVKTHIDFNGRHVENIGMESEFNFFRELGITIHDIKIREIELQGDKVRIKGRIVFQIGDFEIIIERTVHIVVINGQDRHSEFRFE
Reply | Condition not met

Ask | Quick check, protease stability score >= 1? DEDRKEMEEILRLYLEAFLTGDEKLLRHLVDPHVKLDINGVRLHGMDLLIKLLIHEARFFKGMKVEIRIHRVHVQGDKVENDTELILIFDGREFRRRTFLLWLKIDGRWLLESERIE
Reply | Condition met

Ask | Quick check, protease stability score >= 1? DEEHRDLEHFMEIYEDALRTGDEKIIKFLLDPHVRFKQGNKQEHGWEAVYRYLHRFDVVKDVRFRIRSLEIQGDFLIVHYEVRYRGEINGQEHHVTIEYVIIVKKIDGKWLVHEVSIL
Reply | Condition met

Ask | Quick check, protease stability score >= 1? DEEEEMAKKILDDLTHLLETGDEEVFRHLADPNVKVDELVNGRKIHRHGRQDWREIFKEMRLRHIHIRRVHVQGDKLHNDIEVDGDFNGRSHRDRTELILVIVDGRLRTIEIHVN
Reply | Condition met

Ask | Quick check, protease stability score >= 1? HEEEESFKNALEMWIRTVKTGDEKLESDLLDPDARLIFNGQEFHGRELVKKILIDWRKELRVRDFELRDFHIQGDKIYIDGTMFVEINGQTETRKIVIVFVKVNGRWLIHQVTFH
Reply | Condition met
